Values were extracted from patent US12655142B2.

- TEST TARGET: GIST430 cell line expressing constitutive active cKIT receptor tyrosine kinase (Δ560-576 deletion) (Homo sapiens, UniProt P10721, DEL560-576)
- Construct: endogenous in cells; host or cells: GIST430 cells
- Sequence (P10721 with tags, fused parts or gaps DEL560-576): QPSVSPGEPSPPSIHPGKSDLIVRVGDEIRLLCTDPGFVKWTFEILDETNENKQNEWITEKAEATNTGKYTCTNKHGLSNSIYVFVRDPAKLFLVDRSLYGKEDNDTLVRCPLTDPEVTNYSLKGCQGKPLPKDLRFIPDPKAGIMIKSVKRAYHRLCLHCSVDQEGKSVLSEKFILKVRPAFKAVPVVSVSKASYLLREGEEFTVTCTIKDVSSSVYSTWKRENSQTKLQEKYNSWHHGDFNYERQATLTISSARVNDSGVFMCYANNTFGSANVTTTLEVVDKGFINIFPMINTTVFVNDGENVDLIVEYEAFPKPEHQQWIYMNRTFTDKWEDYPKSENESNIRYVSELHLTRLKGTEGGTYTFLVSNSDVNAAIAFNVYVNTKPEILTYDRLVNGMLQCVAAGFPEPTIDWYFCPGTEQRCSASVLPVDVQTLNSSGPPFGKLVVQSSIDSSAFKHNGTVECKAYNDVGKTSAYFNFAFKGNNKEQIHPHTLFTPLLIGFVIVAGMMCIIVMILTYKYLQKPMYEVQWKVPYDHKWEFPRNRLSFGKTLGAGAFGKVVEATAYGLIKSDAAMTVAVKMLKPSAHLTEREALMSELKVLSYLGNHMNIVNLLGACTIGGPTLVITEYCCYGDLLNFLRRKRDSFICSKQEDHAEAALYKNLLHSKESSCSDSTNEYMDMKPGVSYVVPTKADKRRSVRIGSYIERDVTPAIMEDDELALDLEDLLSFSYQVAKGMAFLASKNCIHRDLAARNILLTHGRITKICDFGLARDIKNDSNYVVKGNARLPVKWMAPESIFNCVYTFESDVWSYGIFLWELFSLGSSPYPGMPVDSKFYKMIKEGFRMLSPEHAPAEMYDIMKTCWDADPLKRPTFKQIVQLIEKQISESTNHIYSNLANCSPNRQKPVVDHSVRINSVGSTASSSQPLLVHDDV
- TEST PROTOCOL: Cellular cKIT autophosphorylation (phospho-Y307-cKIT, Luminex bead assay) in GIST430 cells
- Format: cell-based
- CONDITIONS USED: cKIT autophosphorylation, GIST430 cells, compounds 45 min; read-out: GIST 430 IC50
METRIC NAME: IC50 (nM)

Reference set (2 entries):
• Cn1ncc(-c2ccc(CNc3cc(-c4cnc5cc(OCCO)ccn45)ncn3)cc2)n1 = 22
• FC(F)(F)Oc1ccc(CNc2cc(-c3cnc4cc(OCCN5CCn6nncc6C5)ccn34)ncn2)cc1 = 3.3

1. Cn1ncc(-c2ccc(CNc3cc(-c4cnc5cc(OCCCNC6COC6)ccn45)ncn3)cc2)n1
2. COCCOc1ccn2c(-c3cc(NCc4ccc(-c5cccnc5)cc4)ncn3)cnc2c1
Q) Would you let me know which has the greater IC50 value, 1 or 2 ? Could you answer with the label of the item you picked?
A) 2

I. Cn1ncc(-c2ccc(CNc3cc(-c4cnc5cc(OCCCN6CCC6)ccn45)ncn3)cc2)n1
II. CC1(F)CCN(CCCOc2ccn3c(-c4cc(NCc5ccc(-c6cocn6)cc5)ncn4)cnc3c2)CC1
Q) Given I and given II , which shows the smaller recorded IC50? Returns: label corresponding to the selected item.
A) I
(I: 2.3 nM, II: 4.3 nM)

###

- TEST PROTOCOL: Determination of Efflux-Ratio (ER) in Caco-2 cells
- CONDITIONS USED: human, Caco-2, pH 7.4
Each entry below carries its recorded efflux ratio at 2 h, 1 μM.

Worked cases, efflux ratio at 2 h, 1 μM given:
* CO[C@H]1CCN(c2ccc(CNc3cc(-c4cnc5ccccn45)ncn3)cn2)C1 | < 15
* Cn1cc(-c2ccc(CNc3cc(-c4cnc5cc(OCCCN6CCN(C7COC7)CC6)ccn45)ncn3)cc2)cn1 | < 15
* Cn1cc(-c2ccc(CNc3cc(-c4cnc5cc(OCC6CN(C7COC7)C6)ccn45)ncn3)cc2)cn1 | < 15
* CN1CCN(CCOc2ccn3c(-c4cc(NCc5ccc(-n6ccnn6)cc5)ncn4)cnc3c2)CC1 | > 50

Q) State its efflux ratio at 2 h, 1 μM for this compound: `COc1ccn2c(-c3cc(NCc4ccc(-c5noc(C)n5)cc4)ncn3)cnc2c1`
A) < 15

Q) Specify efflux ratio at 2 h, 1 μM for `c1ccn2c(-c3cc(NCc4ccc(N5CCCC5)nc4)ncn3)cnc2c1` and stop.
A) < 15

Q) Give a short answer stating reported efflux ratio at 2 h, 1 μM for `Cc1cn(-c2ccn3c(-c4cc(NCc5ccc(-c6cnn(C)c6)cc5)ncn4)cnc3c2)cn1` .
A) < 15

Q) State its efflux ratio at 2 h, 1 μM for this compound: `Cn1ncc(-c2ccc(CNc3cc(-c4cnc5cc(OCC6CCN(CC#N)CC6)ccn45)ncn3)cc2)n1`
A) < 15

Q) Item `Cn1cc(-c2ccc(CNc3cc(-c4cnc5cc(OCCN6CCC(C)(C#N)CC6)ccn45)ncn3)cc2)cn1` : provide efflux ratio at 2 h, 1 μM
A) < 15

Q) Return the recorded efflux ratio at 2 h, 1 μM value; entry: `CN1CCC(COc2ccn3c(-c4cc(NCc5ccc(-c6cnn(C)n6)cc5)ncn4)cnc3c2)CC1`
A) < 15

Q) Let me know recorded efflux ratio at 2 h, 1 μM for `Cn1cc(-c2ccc(CNc3cc(-c4cnc5cc(OCCCNC6COC6)ccn45)ncn3)cc2)cn1` , thanks.
A) < 15
